# Test system: Pseudomonas aeruginosa
# test_method_notes: Antimicrobial activity against Pseudomonas aeruginosa ATCC 27853 by broth microdilution assay
# Type: functional
value_type: MIC

Inquiry: Please report MIC for the following molecule: CC(C)C[C@@H]1NC(=O)[C@@H]2CCCN2C(=O)[C@H](Cc2ccccc2)NC(=O)[C@H](C(C)C)NC(=O)[C@H](CCC(N)=O)NC(=O)[C@H](C(C)C)NC(=O)[C@@H]2CCCN2C(=O)[C@H](Cc2ccccc2)NC(=O)[C@H](C(C)C)NC(=O)[C@H](CCC(N)=O)NC1=O (stereo in doubt; form 1)
Reply text: > 100 µg/mL

Inquiry: Please report MIC for the following molecule: CC(C)C[C@@H]1NC(=O)[C@H](CCC(N)=O)NC(=O)[C@H](C(C)C)NC(=O)[C@@H]2CCCN2C(=O)[C@@H](Cc2cccs2)NC(=O)[C@H](CC(C)C)NC(=O)[C@H](CCC(N)=O)NC(=O)[C@H](C(C)C)NC(=O)[C@@H]2CCCN2C(=O)[C@@H](Cc2cccs2)NC1=O
Reply text: > 100 µg/mL

Inquiry: Please report MIC for the following molecule: CC(C)C[C@@H]1NC(=O)[C@H](CCC(N)=O)NC(=O)[C@H](C(C)C)NC(=O)[C@@H]2CCCN2C(=O)[C@@H](Cc2c[nH]c3ccccc23)NC(=O)[C@H](CC(C)C)NC(=O)[C@H](CCC(N)=O)NC(=O)[C@H](C(C)C)NC(=O)[C@@H]2CCCN2C(=O)[C@@H](Cc2c[nH]c3ccccc23)NC1=O
Reply text: > 100 µg/mL

###

# MIC listing for each entry below
# System: Pseudomonas aeruginosa
# test_method_notes: Antimicrobial activity against Pseudomonas aeruginosa ATCC 27853 by broth microdilution assay
# Type: functional
Peptide text beside a SMILES is read from it.

Below: 2 compounds and their reported MIC.
compound	MIC
CC(C)C[C@@H]1NC(=O)[C@H](CCC(N)=O)NC(=O)[C@H](C(C)C)NC(=O)[C@@H]2CCCN2C(=O)[C@H](Cc2ccccc2)NC(=O)[C@H](C(C)C)NC(=O)[C@H](CCC(N)=O)NC(=O)[C@H](CC(C)C)NC(=O)[C@@H]2CCCN2C(=O)[C@H](Cc2ccccc2)NC1=O (cyclo(FPLQVFPVQL))	> 100 µg/mL
CC(C)C[C@@H]1NC(=O)[C@H](CCC(N)=O)NC(=O)[C@H](C(C)C)NC(=O)[C@@H]2CCCN2C(=O)[C@H](Cc2ccccc2)NC(=O)[C@H](CC(C)C)NC(=O)[C@H](CCC(N)=O)NC(=O)[C@H](C(C)C)NC(=O)[C@@H]2CCCN2C(=O)[C@H](Cc2ccccc2)NC1=O (cyclo(FPVQLFPVQL))	> 100 µg/mL

Now for a further compound.
Inquiry: Please report MIC for the following compound: CC(C)C[C@@H]1NC(=O)[C@H](CCC(N)=O)NC(=O)[C@H](C(C)C)NC(=O)[C@@H]2CCCN2C(=O)[C@@H](c2ccccc2)NC(=O)[C@H](CC(C)C)NC(=O)[C@H](CCC(N)=O)NC(=O)[C@H](C(C)C)NC(=O)[C@@H]2CCCN2C(=O)[C@@H](c2ccccc2)NC1=O
Reply text: > 100 µg/mL

Hello, the source for this data is ChEMBL document CHEMBL1255543, in case you need it.
